# test.summary: Half life in Sprague-Dawley rat at 5 mg/kg,po by LC-MS/MS analysis
# Format: ADME, organism-based
# condition.summary: in vivo
measurement.label: half-life

> print(dat)
                               item.smiles  recorded.measurement
1  CCCCNC(=O)c1c(O)c2sccc2n(Cc2ccccc2)c1=O               918 min

---

# test.summary: Cytotoxicity against human Caco-2 cells assessed as cell viability at 64 ug/ml incubated for 24 hrs by CCK-8 assay
# Format: toxicity, cell-based
# condition.summary: at 64 µg/mL, read-out: Activity

item.smiles	viability at 24 h, 64 ug/ml [%]
C[C@@H]1[C@H](O)[C@@H](C)/C=C/C=C/C=C/C=C/C=C/C=C/C=C/[C@H](O[C@@H]2O[C@H](C)[C@@H](O)[C@H](N)[C@@H]2O)C[C@@H]2O[C@](O)(C[C@@H](O)C[C@@H](O)[C@H](O)CC[C@@H](O)C[C@@H](O)CC(=O)O[C@H]1C)C[C@H](O)[C@H]2C(=O)O	64.8

---

# test.summary: Selectivity index, ratio of IC50 for human HUVEC to MIC for antifungal activity against Cryptococcus neoformans
# Type: toxicity
# condition.summary: HUVEC cells, read-out: Selectivity Index
measurement.label: selectivity ratio

> print(dat)
                               item.smiles  recorded.measurement
1  CCCCNC(=O)c1c(O)c2sccc2n(Cc2ccccc2)c1=O                 > 256

---

Known log10(MIC) of a selection of molecules
# Tested on: Cryptococcus neoformans
# test.summary: Antifungal activity against Cryptococcus neoformans H99 assessed as fungal growth inhibition incubated for 72 hrs by broth microdilution method
# Format: functional
measurement.label: log10(MIC) (log10 of the value in µg/mL)

molecule	measurement.label	recorded.measurement
CC(C)NC(=O)c1c(O)c2sccc2n(Cc2ccccc2)c1=O	log10(MIC)	0.30
O=C(NCCO)c1c(O)c2sccc2n(Cc2ccccc2)c1=O	log10(MIC)	0.90
O=C(NCC1CCCO1)c1c(O)c2sccc2n(Cc2ccccc2)c1=O (stereo unspecified)	log10(MIC)	0.60
O=C(NCCc1cccs1)c1c(O)c2sccc2n(Cc2ccccc2)c1=O	log10(MIC)	0.30
COc1cccc(CNC(=O)c2c(O)c3sccc3n(Cc3ccccc3)c2=O)c1	log10(MIC)	0.30
COc1ccc(CNC(=O)c2c(O)c3sccc3n(Cc3ccccc3)c2=O)cc1	log10(MIC)	0.30
CC(NC(=O)c1c(O)c2sccc2n(Cc2ccccc2)c1=O)c1ccc(F)cc1 (stereo unspecified)	log10(MIC)	0.30
Cc1ccccc1CNC(=O)c1c(O)c2sccc2n(Cc2ccccc2)c1=O	log10(MIC)	0.30
C=CCCNC(=O)c1c(O)c2sccc2n(Cc2ccccc2)c1=O	log10(MIC)	-0.60
O=C(NCc1cc(F)cc(F)c1)c1c(O)c2sccc2n(Cc2ccccc2)c1=O	log10(MIC)	0.30
CCCCCNC(=O)c1c(O)c2sccc2n(Cc2ccccc2)c1=O	log10(MIC)	-0.30
COCCNC(=O)c1c(O)c2sccc2n(Cc2ccccc2)c1=O	log10(MIC)	0.30
CC(NC(=O)c1c(O)c2sccc2n(Cc2ccccc2)c1=O)c1ccccc1 (stereo unspecified)	log10(MIC)	0.60
CC(C)CNC(=O)c1c(O)c2sccc2n(Cc2ccccc2)c1=O	log10(MIC)	1.20
OC(Cn1cncn1)(Cn1cncn1)c1ccc(F)cc1F [FLUCONAZOLE]	log10(MIC)	1.20
CCCCCCNC(=O)c1c(O)c2sccc2n(Cc2ccccc2)c1=O	log10(MIC)	-0.30
C[C@@H]1[C@H](O)[C@@H](C)/C=C/C=C/C=C/C=C/C=C/C=C/C=C/[C@H](O[C@@H]2O[C@H](C)[C@@H](O)[C@H](N)[C@@H]2O)C[C@@H]2O[C@](O)(C[C@@H](O)C[C@@H](O)[C@H](O)CC[C@@H](O)C[C@@H](O)CC(=O)O[C@H]1C)C[C@H](O)[C@H]2C(=O)O [AMPHOTERICIN B]	log10(MIC)	0.00
O=C(NCc1cccs1)c1c(O)c2sccc2n(Cc2ccccc2)c1=O	log10(MIC)	0.30
O=C(NCc1cccc(Cl)c1)c1c(O)c2sccc2n(Cc2ccccc2)c1=O	log10(MIC)	0.30
O=C(NC1CCCC1)c1c(O)c2sccc2n(Cc2ccccc2)c1=O	log10(MIC)	0.60
Cc1ccc(CNC(=O)c2c(O)c3sccc3n(Cc3ccccc3)c2=O)o1	log10(MIC)	0.30
CSc1ccc(CNC(=O)c2c(O)c3sccc3n(Cc3ccccc3)c2=O)cc1	log10(MIC)	0.30
O=C(NCCc1c[nH]c2ccccc12)c1c(O)c2sccc2n(Cc2ccccc2)c1=O	log10(MIC)	0.90
O=C(NCc1ccccn1)c1c(O)c2sccc2n(Cc2ccccc2)c1=O	log10(MIC)	0.30
O=C(NCCc1ccccc1)c1c(O)c2sccc2n(Cc2ccccc2)c1=O	log10(MIC)	0.60
O=C(NCCN1CCOCC1)c1c(O)c2sccc2n(Cc2ccccc2)c1=O	log10(MIC)	0.90
O=C(NCc1ccccc1Cl)c1c(O)c2sccc2n(Cc2ccccc2)c1=O	log10(MIC)	0.30
CCOCCNC(=O)c1c(O)c2sccc2n(Cc2ccccc2)c1=O	log10(MIC)	-0.30
O=C(NCc1ccc(Cl)cc1)c1c(O)c2sccc2n(Cc2ccccc2)c1=O	log10(MIC)	0.00
CCC(C)NC(=O)c1c(O)c2sccc2n(Cc2ccccc2)c1=O (stereo unspecified)	log10(MIC)	0.60
O=C(NN1CCCCC1)c1c(O)c2sccc2n(Cc2ccccc2)c1=O	log10(MIC)	1.20
O=C(NCc1ccc(F)cc1)c1c(O)c2sccc2n(Cc2ccccc2)c1=O	log10(MIC)	0.60
CCCCNC(=O)c1c(O)c2sccc2n(Cc2ccccc2)c1=O	log10(MIC)	-0.60
Cc1ccc(CNC(=O)c2c(O)c3sccc3n(Cc3ccccc3)c2=O)cc1C	log10(MIC)	0.30
O=C(NCc1ccncc1)c1c(O)c2sccc2n(Cc2ccccc2)c1=O	log10(MIC)	0.30
O=C(NCc1ccc(F)cc1F)c1c(O)c2sccc2n(Cc2ccccc2)c1=O	log10(MIC)	0.30
O=C(NCCCCO)c1c(O)c2sccc2n(Cc2ccccc2)c1=O	log10(MIC)	0.30
CN(C)c1ccc(CNC(=O)c2c(O)c3sccc3n(Cc3ccccc3)c2=O)cc1	log10(MIC)	0.60
CCCNC(=O)c1c(O)c2sccc2n(Cc2ccccc2)c1=O	log10(MIC)	0.30
O=C(NCC1CC1)c1c(O)c2sccc2n(Cc2ccccc2)c1=O	log10(MIC)	0.00

Origin of the recorded values: ChEMBL document CHEMBL5137080
